Tested on: SERPINA7 (gene 6906)
Experiment: CCTE_GLTED_hTBG: CCTE's human Thyroxine-binding Globulin (TBG) Inhibition Assay, Great Lakes Toxicology and Ecology Division (GLTED) Lab (AID 2284343);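 further: active chemicals lower fluorescence versus DMSO baseline by displacing probe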
The source made the active and inactive calls. How the source made its calls: active means hit-call score of the fitted dose curve at least 0.9, where 1 is the maximum; inconclusive means response in the unintended direction; inactive means score below 0.9.
observed-property: AC50

Enquiry: Entry CCCCCCCCCCCCCOS(=O)(=O)O has what AC50?
Return: 31 µM (active)

Enquiry: Name the recorded AC50 for c1ccc(CCCc2ccccn2)cc1 .
Return: 22.2 µM (active)

Enquiry: Quick check: AC50 of Cc1ccc(S)cc1 ?
Return: 1.59 µM (active)

Enquiry: Item O=C1c2ccccc2C(=O)N1SC1CCCCC1 has what recorded AC50?
Return: 29.4 µM (active)

Enquiry: Given the compound O=C(Oc1ccccc1)c1ccc(O)cc1 , what is its reported AC50?
Return: 12.6 µM (active)

Enquiry: What does the record list as AC50 for CC(C)=CCC[C@](C)(O)[C@@H]1CC=C(C)CC1 ?
Return: 19.2 µM (active)

====

Target: human Retinoid X Receptor beta (RXRb), RXRB (gene 6257)
Assay: ATG_RXRb_TRANS: Attagene TRANS-FACTORIAL HepG2 Assay for human Retinoid X Receptor beta (RXRb) (AID 2283013)
Results filed as inconclusive are left out. The source made the active and inactive calls. How the source made its calls: active means hit-call score of the fitted dose curve at least 0.9, where 1 is the maximum; inconclusive means response in the unintended direction; inactive means score below 0.9.
API: response.call in TRUE = active, FALSE = inactive

Enquiry: Record lookup: outcome of this test for O=C(O)CCSCCC(=O)O ?
Return: FALSE

Enquiry: Called result for COC(=O)Cc1cccc2ccccc12
Return: TRUE

Enquiry: Outcome? O=S(=O)(O)c1cccc2c(S(=O)(=O)O)cccc12
Return: FALSE

Enquiry: Answer briefly: the call reported for CC(=O)/C=C/C1=C(C)CCCC1(C)C in this assay.
Return: TRUE

Enquiry: Entry CC(C#N)(CCC(=O)O)N=NC(C)(C#N)CCC(=O)O (stereo not given) : call = ?
Return: FALSE

Enquiry: # lookup: test call for CCCCCC(CO)CCC (stereo not given)
Return: FALSE

Enquiry: Look up the recorded call for CCC(O)CO (stereo not given) in this test.
Return: FALSE

Enquiry: Called result for COc1nc(C)nc(N)n1
Return: FALSE

Enquiry: Recorded test call requested for O=Cc1ccc(F)cc1
Return: FALSE

Enquiry: Any idea what this test logged for CC(C)(COC(=O)c1ccccc1)COC(=O)c1ccccc1 ?
Return: FALSE

Enquiry: Tell me the assay call for CCc1ccc(C=O)cc1 please.
Return: FALSE

Enquiry: # lookup: test call for CCCCCOC(=O)CCC
Return: FALSE

Enquiry: How was CC(=O)O[C@]1(C(C)=O)CC[C@H]2[C@@H]3C[C@H](C)C4=CC(=O)CC[C@]4(C)[C@H]3CC[C@@]21C classified in this test?
Return: TRUE

Enquiry: Any idea what this test logged for CC1(C)CCC(C)(C)c2cc(C(=O)Nc3ccc(C(=O)O)cc3)ccc21 ?
Return: FALSE

Enquiry: Per the assay record, what outcome was assigned to O=C(O)c1cn(C2CC2)c2cc(N3CCNCC3)c(F)cc2c1=O ?
Return: FALSE

Enquiry: Test call, this compound: Cc1ccc2sc3cccc(C)c3c2c1
Return: FALSE

Enquiry: Tell me the assay call for Cc1ncc([N+](=O)[O-])n1C please.
Return: TRUE

Enquiry: Can you look up the reported call for C=C(C)C(=O)Nc1ccc(Cl)c(Cl)c1 for me?
Return: TRUE

Enquiry: GET /call?item= CCCCCCCCCC=O returns the recorded outcome of this test.
Return: TRUE

Enquiry: State the result this test recorded for COc1c(Cl)c(Cl)c(Cl)c(Cl)c1Cl .
Return: TRUE

Enquiry: How was CC(C)(C#N)c1cc(Cn2cncn2)cc(C(C)(C)C#N)c1 classified in this test?
Return: FALSE

Enquiry: // outcome(item) with item = Cc1ccc(C(=O)c2cc(O)c(O)c([N+](=O)[O-])c2)cc1
Return: FALSE

Enquiry: // param item: Nc1ccc(F)c([N+](=O)[O-])c1 ; yields the recorded call
Return: FALSE

Enquiry: Look up the recorded call for O=C1O[C@@H]2[C@@H](O)[C@H](O)O[C@@H]2[C@H]1O in this test.
Return: FALSE

Enquiry: What was the test verdict on NCCNCCN ?
Return: FALSE

Enquiry: How was CC1CCC(C(C)(C)O)CC1 (stereo not given) classified in this test?
Return: FALSE

Enquiry: Look up the recorded call for O=C(O)C[C@H](O)C[C@H](O)/C=C/c1c(C2CC2)nc2ccccc2c1-c1ccc(F)cc1 in this test.
Return: FALSE

Enquiry: Hello, I am checking results. What call was entered for CCCCCCCCCCCCCCCC(=O)O ?
Return: FALSE

Enquiry: Tell me the assay call for CC(=O)Nc1ccccc1O please.
Return: FALSE

Enquiry: Assay outcome for Nc1cc([N+](=O)[O-])ccc1O : what was it?
Return: FALSE

Enquiry: What was the test verdict on C=C(C)[C@@H]1CCC2=CC(=O)C[C@@H](C)[C@]2(C)C1 ?
Return: FALSE

Enquiry: Could you check what this test reported for COC(=O)OC ?
Return: FALSE

Enquiry: Answer briefly: the call reported for CN(CCOc1ccc(CC2SC(=O)NC2=O)cc1)c1ccccn1 (stereo not given) in this assay.
Return: FALSE

Enquiry: Kindly provide the recorded test outcome for the following compound: O=C=NC1CCC(CC2CCC(N=C=O)CC2)CC1 (stereo not given)
Return: FALSE

Enquiry: Per the assay record, what outcome was assigned to CC(C)c1ccc(C(C)C)cc1 ?
Return: TRUE

====

Read-out: Tissue Factor, F3 (gene 2152)
Assay: BSK_CASM3C_TissueFactor: BioMAP Diversity Plus: CASM3C Assay for Tissue Factor Biomarker Activity (AID 2283052);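 further: cell surface tissue factor protein level read by ELISA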
Conditions: primary human coronary artery smooth muscle cells; actives raise or lower the signal
Calls of active or inactive are those of the source. Rule for the calls: active = hit-call score of the fitted dose curve at least 0.9, where 1 is the maximum; inactive = score below 0.9.
// one of active, inactive, no free text

Enquiry: Please let me know the test result on file for O=C=NC1CCC(CC2CCC(N=C=O)CC2)CC1 (configuration not stated) .
Return: inactive

Enquiry: Recorded call for CNC[C@H](O)c1cccc(O)c1 ?
Return: inactive

Enquiry: // outcome(item) with item = O=C1OC2(c3cc(Br)c(O)c(Br)c3Oc3c2cc(Br)c(O)c3Br)c2c(Cl)c(Cl)c(Cl)c(Cl)c21
Return: inactive

Enquiry: Record request — test call for CC(C)c1ccc(C(C)C)cc1
Return: active

Enquiry: Hi, do you know how O=C(O)c1cn(C2CC2)c2cc(N3CCNCC3)c(F)cc2c1=O came out in this test?
Return: inactive

Enquiry: In this assay, the call recorded for CCCCCCCCCCCCCCCCCC(=O)OCC(CC)CCCC (configuration not stated) was what?
Return: inactive

Enquiry: Test call, this compound: O=[N+]([O-])c1cc(C(F)(F)F)ccc1Cl
Return: inactive

Enquiry: What outcome does the record of this test show for O=C(O)c1cn(-c2ccc(F)cc2)c2cc(N3CCNCC3)c(F)cc2c1=O ?
Return: inactive

Enquiry: Lab log entry: CC(=O)Nc1ccccc1O — outcome as called in the assay?
Return: inactive

Enquiry: Test call for this compound, please: Cc1ccc(O)c(C(C)(C)C)c1
Return: active

Enquiry: Give the logged outcome of this assay for the following compound: CC(=O)[C@H]1CC[C@H]2[C@@H]3CC=C4C[C@@H](O)CC[C@]4(C)[C@H]3CC[C@]12C
Return: inactive

Enquiry: Which outcome was assigned to CC(=O)/C=C/C1=C(C)CCCC1(C)C in this test?
Return: inactive

====

Assay: TOX21_p53_BLA_p4_viability: Viability Assessment in the Tox21 HCT-116 p53 Agonism Beta-lactamase Assay, Phase 4 (AID 2283597);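 further: hits lower the luminescence signal meaning cytotoxicity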
Inconclusive results are not listed. Calls of active or inactive are those of the source. Rule for the calls: active = hit-call score of the fitted dose curve at least 0.9, where 1 is the maximum; inconclusive = response in the unintended direction; inactive = score below 0.9.
Answer with one of the outcomes active, inactive

Enquiry: Field: outcome | Entry: ClCCCl
Return: inactive

Enquiry: Assay outcome for O=C(O)c1ccc([N+](=O)[O-])cc1 : what was it?
Return: inactive

Enquiry: Assay result, entry CCCCO — outcome?
Return: inactive

Enquiry: Which outcome did this test record for the molecule Cc1ccc(Nc2ccc(O)c3c2C(=O)c2ccccc2C3=O)cc1 ?
Return: inactive

Enquiry: Tell me the recorded outcome of this test for N#Cc1ccccc1 .
Return: inactive

Enquiry: Record request — test call for C=CC(=O)OCCn1c(=O)n(CCOC(=O)C=C)c(=O)n(CCOC(=O)C=C)c1=O
Return: active

Enquiry: Hi, do you know how C=CC[N+](C)(C)CC=C came out in this test?
Return: inactive

Enquiry: Could you please tell me the result logged for CCCCC(CC)COC(=O)/C=C\C(=O)OCC(CC)CCCC (stereo not drawn) in this assay?
Return: inactive
